Cited source: PubChem BioAssay AID1963829

Tested on: 935938-334-R-J1-PDC complex spheroid viability
Assay: Anticancer human tumor 935938-334-R-J1-PDC patient-derived small intestine adenocarcinoma cell line growth inhibition [POLQ]
Details: second compound 0.1 µM; first compound 10 µM; hits give low values
For each record, check the reported viability, T/C: if it is below 20% write Met, else write Not met.

# count of solved cases: 2
CC1COCCN1c1cc(C2(O)CC3CCC(C2)O3)c2cnn(-c3ccn[nH]3)c2n1 (stereo unspecified) + Nc1ccc(C#CCN(C(=O)Cc2ncc(C(F)(F)F)cc2C(F)(F)F)c2ccc(F)cc2)nn1; Met
CC1COCCN1c1cc(-c2ccnn2C)c2ccnc(-c3ccn[nH]3)c2n1 (stereo unspecified) + Cc1cccc(N(C)C(=O)C2C(O)CCN2c2nc(C)cc(C(F)(F)F)c2C#N)c1; Not met

Input COc1cc2cc(C(=O)CCC(=O)O)sc2cc1OC + Cc1cccc(N(C)C(=O)C2C(O)CCN2c2nc(C)cc(C(F)(F)F)c2C#N)c1 ; condition: viability, T/C strictly below 20%. Does it hold?
Not met

Next entry: COc1cc(C2c3cc4c(cc3C(OC3OC5COC(C)OC5C(O)C3O)C3COC(=O)C23)OCO4)cc(OC)c1O (stereo unspecified) + Cc1cccc(N(C)C(=O)C2C(O)CCN2c2nc(C)cc(C(F)(F)F)c2C#N)c1
Not met

Next: CCc1cc2c(N3CCc4c(cc(Cn5ccnc5)cc4-c4cn(C)nc4C(F)(F)F)C3=O)ccnc2c(OC)n1 + Cc1cccc(N(C)C(=O)C2C(O)CCN2c2nc(C)cc(C(F)(F)F)c2C#N)c1
Not met

Record: C#Cc1c(F)ccc2cc(O)cc(-c3ncc4c(N5CC6CCC(C5)N6)nc(OCC56CCCN5CC(F)C6)nc4c3F)c12 (stereo unspecified) + COC1C(OC(N)=O)C(O)C(Oc2ccc3c(O)c(NC(=O)c4ccc(O)c(CC=C(C)C)c4)c(=O)oc3c2C)OC1(C)C
Not met

Then what about the compound CC(C)n1c(=O)n(C)c2cnc3cc(F)c(-c4ccc(OCCCN5CCCCC5)nc4)cc3c21 + Cc1cccc(N(C)C(=O)C2C(O)CCN2c2nc(C)cc(C(F)(F)F)c2C#N)c1 ?
Not met

Next compound: C=CC(=O)N1CCN(c2nc(=O)n(-c3c(C)ccnc3C(C)C)c3nc(-c4c(O)cccc4F)c(F)cc23)C(C)C1 (stereo unspecified) + COC1C(OC(N)=O)C(O)C(Oc2ccc3c(O)c(NC(=O)c4ccc(O)c(CC=C(C)C)c4)c(=O)oc3c2C)OC1(C)C
Not met

Try this compound next: O=C(Nc1ccc(O)c(NS(=O)(=O)c2ccc(F)cc2)c1)c1ccc(-c2ccccc2)cc1 + Nc1ccc(C#CCN(C(=O)Cc2ncc(C(F)(F)F)cc2C(F)(F)F)c2ccc(F)cc2)nn1
Not met

Please do the same for Nc1ccn(C2OC(CO)C(O)C2(F)F)c(=O)n1 (stereo unspecified) + Nc1ccc(C#CCN(C(=O)Cc2ncc(C(F)(F)F)cc2C(F)(F)F)c2ccc(F)cc2)nn1 as well.
Met

Note, next up: O=c1[nH]cc(F)c(=O)[nH]1 + COC1C(OC(N)=O)C(O)C(Oc2ccc3c(O)c(NC(=O)c4ccc(O)c(CC=C(C)C)c4)c(=O)oc3c2C)OC1(C)C
Not met

###

System: 935938-334-R-J1-PDC complex spheroid viability
Test: Anticancer human tumor 935938-334-R-J1-PDC cell line growth inhibition [POLQ];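 further: spheroids exposed to drugs for seven days before viability read; 100% = DMSO vehicle control wells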
Details: second compound 0.0316 µM; first compound 0.00316 µM; hits give low values
Items are presented alongside their recorded viability, T/C.

A selection of reference data follows.
COc1cccc(OCCCN)c1-c1cc(Nc2cnc(C#N)cn2)n[nH]1 + COC1C(OC(N)=O)C(O)C(Oc2ccc3c(O)c(NC(=O)c4ccc(O)c(CC=C(C)C)c4)c(=O)oc3c2C)OC1(C)C; 90.2%
C=CCn1c(=O)c2cnc(Nc3ccc(N4CCN(C)CC4)cc3)nc2n1-c1cccc(C(C)(C)O)n1 + Cc1cccc(N(C)C(=O)C2C(O)CCN2c2nc(C)cc(C(F)(F)F)c2C#N)c1; 86.3%
COc1cccc(OCCCN)c1-c1cc(Nc2cnc(C#N)cn2)n[nH]1 + Cc1cccc(N(C)C(=O)C2C(O)CCN2c2nc(C)cc(C(F)(F)F)c2C#N)c1; 118%
CCc1c2c(nc3ccc(O)cc13)-c1cc3c(c(=O)n1C2)COC(=O)[C@]3(O)CC + COC1C(OC(N)=O)C(O)C(Oc2ccc3c(O)c(NC(=O)c4ccc(O)c(CC=C(C)C)c4)c(=O)oc3c2C)OC1(C)C; 82%
CCc1c2c(nc3ccc(O)cc13)-c1cc3c(c(=O)n1C2)COC(=O)[C@]3(O)CC + Cc1cccc(N(C)C(=O)C2C(O)CCN2c2nc(C)cc(C(F)(F)F)c2C#N)c1; 96.3%

Query (compound): CC[C@@]1(O)C(=O)OCc2c1cc1n(c2=O)Cc2cc3c(CN(C)C)c(O)ccc3nc2-1 + Cc1cccc(N(C)C(=O)C2C(O)CCN2c2nc(C)cc(C(F)(F)F)c2C#N)c1 ; field requested: viability, T/C
95.1%

Moving on to the next compound: Cn1ncnc1[C@H]1c2n[nH]c(=O)c3cc(F)cc(c23)N[C@@H]1c1ccc(F)cc1 + Nc1ccc(C#CCN(C(=O)Cc2ncc(C(F)(F)F)cc2C(F)(F)F)c2ccc(F)cc2)nn1
94.5%

Would you kindly repeat that for CCc1c2c(nc3ccc(O)cc13)-c1cc3c(c(=O)n1C2)COC(=O)[C@]3(O)CC + Nc1ccc(C#CCN(C(=O)Cc2ncc(C(F)(F)F)cc2C(F)(F)F)c2ccc(F)cc2)nn1 ?
83.8%

One more compound: CC[C@@]1(O)C(=O)OCc2c1cc1n(c2=O)Cc2cc3c(CN(C)C)c(O)ccc3nc2-1 + Nc1ccc(C#CCN(C(=O)Cc2ncc(C(F)(F)F)cc2C(F)(F)F)c2ccc(F)cc2)nn1
97.6%

Cn1ncnc1[C@H]1c2n[nH]c(=O)c3cc(F)cc(c23)N[C@@H]1c1ccc(F)cc1 + Cc1cccc(N(C)C(=O)C2C(O)CCN2c2nc(C)cc(C(F)(F)F)c2C#N)c1 , same question.
102%

Then C=CCn1c(=O)c2cnc(Nc3ccc(N4CCN(C)CC4)cc3)nc2n1-c1cccc(C(C)(C)O)n1 + Nc1ccc(C#CCN(C(=O)Cc2ncc(C(F)(F)F)cc2C(F)(F)F)c2ccc(F)cc2)nn1 ?
90.4%
